target: human cloned 5-HT6 receptors (Homo sapiens, UniProt P50406); construct: expressed in transfected cells; host or cells: HeLa cells; assay: 5-HT6 binding affinity, [3H]-LSD displacement on membranes of Hela cells; details: Table 1; 5-HT6 binding, at 1 micromole; read-out: % inhibition at 1 micromole
Sequence (P50406 whole entry): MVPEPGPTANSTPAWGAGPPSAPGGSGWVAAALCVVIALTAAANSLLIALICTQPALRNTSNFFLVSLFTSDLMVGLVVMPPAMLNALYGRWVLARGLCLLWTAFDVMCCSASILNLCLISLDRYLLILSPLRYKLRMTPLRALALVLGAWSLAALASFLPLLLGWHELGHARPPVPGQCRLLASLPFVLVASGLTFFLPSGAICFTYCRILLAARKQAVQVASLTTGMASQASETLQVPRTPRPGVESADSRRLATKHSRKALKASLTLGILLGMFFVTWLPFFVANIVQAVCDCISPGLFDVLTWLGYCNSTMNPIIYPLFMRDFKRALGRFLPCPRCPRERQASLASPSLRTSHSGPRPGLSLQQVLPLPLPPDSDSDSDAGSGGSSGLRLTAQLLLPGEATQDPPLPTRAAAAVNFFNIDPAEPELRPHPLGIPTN
Classify as follows. Reported inhibition at 1 µM greater than or equal to 70%: Condition met. Reported inhibition at 1 µM below: Condition not met.

Previously resolved entries follow.
> print(dat)
                                   molecule                cat
1  O=S(=O)(c1ccccc1)c1c[nH]c2cccc(CCN3CCOCC3)c12 [Example 45]  Condition not met
2  O=S(=O)(c1ccccc1)c1c[nH]c2cc(CCN3CCCC3)ccc12 [Example 98]      Condition met
3  CC(C)(C)CNCCc1cccc2[nH]cc(S(=O)(=O)c3ccccc3)c12 [Example 49]  Condition not met
4  CCN(CC)CCc1cccc2[nH]cc(S(=O)(=O)c3cccc(F)c3)c12 [Example 73]      Condition met

Say whether O=S(=O)(c1cccc(F)c1)c1c[nH]c2cccc(CCNC3CC3)c12 [Example 67] shows inhibition at 1 µM of 70% or more. Condition met

====

Catalogue of pKi readings, one per entry.
biological target: human cloned 5-HT6 receptors (Homo sapiens, UniProt P50406); construct: expressed in transfected cells; host or cells: HeLa cells; experiment: 5-HT6 binding affinity, [3H]-LSD displacement on membranes of Hela cells; details: Table 2; read-out: 5-HT6 Ki
// field semantics: pKi = negative decimal log of concentration (mol/L)

Reference set, count: 5
> print(dat)
                                   compound  observable  measured.number
1  O=S(=O)(c1ccccc1)c1c[nH]c2cccc(CCNC3CCCC3)c12 [Example 38]         pKi             6.86
2  O=S(=O)(c1ccccc1)c1c[nH]c2cccc(CCNCC3CCCO3)c12 (stereo not shown) [Example 51]         pKi             6.72
3  CC(NCCc1cccc2[nH]cc(S(=O)(=O)c3ccccc3)c12)C(C)(C)C (stereo not shown) [Example 46]         pKi             6.97
4  CC(C)NCCc1cccc2[nH]cc(S(=O)(=O)c3ccccc3)c12 [Example 35]         pKi             6.71
5  CCNCCc1cccc2[nH]cc(S(=O)(=O)c3ccccc3)c12 [Example 33]         pKi             6.68

Recorded pKi of O=S(=O)(c1ccccc1)c1c[nH]c2cccc(CCN3CCCCC3)c12 [Example 44] , please. 6.36

Name the recorded pKi for O=S(=O)(c1ccccc1)c1c[nH]c2cccc(CCNC3CC3)c12 [Example 36] . 6.77

What does the data say about its pKi? Entry: O=S(=O)(c1ccccc1)c1c[nH]c2cccc(CCN3CCOCC3)c12 [Example 45] 6.12

For the compound CN(C)CCc1cccc2[nH]cc(S(=O)(=O)c3ccccc3)c12 [Example 31] , what pKi is on record? 6.85

Consider the compound O=S(=O)(c1ccccc1)c1c[nH]c2cccc(CCNC3CCC3)c12 [Example 37] and give its measured pKi. 7.33

====

Biological target: human cloned 5-HT6 receptors (Homo sapiens, UniProt P50406)
Construct: expressed in transfected cells; host or cells: HeLa cells
Assay: 5-HT6 binding affinity, [3H]-LSD displacement on membranes of Hela cells
Settings: Table 1; [3H]-LSD 3.0 nM, Hela cell membranes; read-out: Ki (nM) @ 5-HT6 receptor
Method: The affinity of test compounds for the 5-HT6 receptor is evaluated in the following manner. Cultured Hela cells expressing human cloned 5-HT6 receptors are harvested and centrifuged at low speed (1,000×g) for 10.0 min to remove the culture media. […] The final pellet is suspended in a small volume of Tris.HCl buffer and the tissue protein content is determined in aliquots of 10-25 microliter volumes. […]
OBSERVABLE: Ki (nM)
Give the quantity in nM, number only.

Past entries and their recorded results:
> print(dat)
                              smiles.record  observable  measured.number
1  CCC(CC)NCCc1cccc2[nH]cc(S(=O)(=O)c3cccc(F)c3)c12          Ki               80
2  O=S(=O)(c1ccccc1)c1c[nH]c2ccc(CCN3CCCCC3)cc12          Ki             10.3
3  CN(CCc1cccc2[nH]cc(S(=O)(=O)c3ccccc3)c12)C1CCCCC1          Ki              126

Entry under review: "NCCc1cccc2[nH]cc(S(=O)(=O)c3ccccc3)c12" . Reported Ki? 993
